Biological target: Protein FosB (Mus musculus)
Experiment: activators of delta FosB homodimer, primary screen, biochemical, fluorescence polarization, TAMRA-CDK5 oligo, single point (AID 493131);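 further: fluorescence polarization rise as delta FosB binds a TAMRA Cdk5 AP-1 oligo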
Conditions: purified delta FosB, at 25 µM, active compounds read high, percent of positive-control signal above neutral wells
Among all 340,000 compounds or so, about 3,300 (0.97%) were called active. What follows is part of a selection rich in actives, with near analogues and random picks from the rest.
Outcome Measure: activation (%)
// note: answer is a bare numeric in %

Reported activation of "Nc1nnc(SCC(=O)OCc2ccc(Cl)c(Cl)c2)s1" : -5.37

Memo: CC(Sc1nc(-c2ccccc2)cc(C(F)(F)F)n1)C(=O)Nc1ccc2c(c1)OCO2 (centres undefined) , reported activation: 30.4

activation reported for this compound "COC(=O)c1scc(C)c1NC(=O)CSc1ccc(Cl)cc1" : 35

Measured activation, CC(Sc1nc2cc(Cl)ccc2s1)C(=O)Nc1ccc2c(c1)OCO2 (centres undefined) : -3.52

// activation value for "COc1ccc(-c2cc(=O)c3c(O)cc(O[C@@H]4O[C@H](CO[C@@H]5O[C@@H](C)[C@H](O)[C@@H](O)[C@H]5O)[C@@H](O)[C@H](O)[C@H]4O)cc3o2)cc1O" : 74.8

Measured activation of "COC(=O)c1cc(OC)c(OC)cc1NC(=O)CSc1ccc(C)cc1" : -0.589

Lab book: activation of "Cc1cccc(-n2nc3c(c2NC(=O)c2cc4ccccc4o2)CS(=O)(=O)C3)c1" noted as -22.1

Notebook: "O=C(CCc1ccccc1)Nc1ccc(NC(=O)C2CC2)nc1" , activation read as 4.2

The reported value for C#CCOCCOCCOCCNc1nc(N2CCN(C(=O)[C@H](CCCCN)n3cc(CCC(=O)O)nn3)CC2)nc(N2CCN(C(=O)[C@H](CCCCN)n3cc(CC(C)O)nn3)CC2)n1 (some centres undefined) in terms of activation is 2.6

Item: CCCCC(c1nnnn1CS(=O)(=O)c1ccc(C)cc1)N1CCC(C(N)=O)CC1 (centres undefined) | activation: -1.34

"O=C(CNS(=O)(=O)c1ccc(Br)s1)NCc1ccc2c(c1)OCO2" has a reported activation of -7.24

Query "CCN1/C(=C\c2ccc3ccccc3[n+]2CC)Sc2cc(C)ccc21" yields activation of 54.5

According to the records, this compound CC(C)Sc1nc(N)nc2c1ncn2C1OC(CO)C(O)C1O (centres undefined) displays activation of -4.1

The compound "COc1ccc(-c2cc3n(n2)CCc2nc4ccccc4n2-3)cc1" showed activation equal to 18.1

The compound listed as "CCN(CC(=O)NCc1ccc(F)cc1)S(=O)(=O)c1ccc(Cl)s1" shows activation equal to 6.54

Record summary for "COc1ccc(-c2cc(C(=O)n3cnc4ccccc43)c3ccccc3n2)cc1" : reported activation = -10

Item: COc1ccc(C2CC(c3cccs3)Nc3nnnn32)cc1 (centres undefined) | activation: -5.14

Reported activation for C#CCOCCOCCOCCNc1nc(N2CCN(C(=O)C(Cc3ccc(O)cc3)n3cc(C(N)CC(C)C)nn3)CC2)nc(N2CCN(C(=O)C(Cc3ccc(O)cc3)n3cc(C(N)C(C)CC)nn3)CC2)n1 (centres undefined) was 22.4

response.value for "CN(Cc1cccs1)C(=O)Cc1c[nH]c2ccccc12" (field: activation) = 0.954
